Values compiled from patent US8426447B2.

Parameter: pIC50. Scope: all listed entries.
TGT: UniProt P56817
EXPERIMENTAL PROTOCOL: In Vitro BACE Cell-based Assay (HEK cell assay): Aβ40 in conditioned medium of cells stably expressing Amyloid Precursor Protein, sandwich ELISA
RECORDED CONDITIONS: HEK cells; read-out: HEK cell assay
pIC50: −log10 of the molar value.
PROPERTY LABEL: pIC50

{"MOLECULE": "CC(C)(C#N)COc1cc(F)c2c(c1)[C@]1(COC(N)=N1)c1cc(-c3cccnc3F)ccc1O2 [Example 287]", "TGT": "UniProt P56817", "ASSAY VALUE": "> 7.00"}
{"MOLECULE": "NC1=N[C@@]2(CO1)c1cc(-c3cc(C4=CCOCC4)ccc3F)ccc1Oc1cnc(C3=CCOCC3)cc12 [compound 423]", "TGT": "UniProt P56817", "ASSAY VALUE": "6.00 to 7.00"}
{"MOLECULE": "CC(C)(F)COc1cnc2c(c1)[C@]1(COC(N)=N1)c1cc(-c3ccccc3)ccc1O2 [compound 452]", "TGT": "UniProt P56817", "ASSAY VALUE": "6.00 to 7.00"}
{"MOLECULE": "N#Cc1ccc(-c2cnc3c(c2)[C@]2(COC(N)=N2)c2cc(-c4cncnc4)ccc2O3)cc1 [compound 473]", "TGT": "UniProt P56817", "ASSAY VALUE": "> 7.00"}
{"MOLECULE": "NC1=N[C@@]2(CO1)c1cc(-c3ccccc3)ccc1Oc1ncc(N3C[C@@H]4C[C@H]3CO4)cc12 [compound 454]", "TGT": "UniProt P56817", "ASSAY VALUE": "> 7.00"}
{"MOLECULE": "CC1(C)C[C@H](c2ccc3c(c2)[C@]2(COC(N)=N2)c2cc(-c4cncnc4)ccc2O3)CCO1 [compound 482]", "TGT": "UniProt P56817", "ASSAY VALUE": "> 7.00"}
{"MOLECULE": "CC1(C)C=C(c2cc3c(cc2F)Oc2ccc(-c4cncnc4)cc2[C@@]32COC(N)=N2)CCO1 [compound 502]", "TGT": "UniProt P56817", "ASSAY VALUE": "> 7.00"}
{"MOLECULE": "CC1(C)C=C(c2cnc3c(c2)[C@]2(COC(N)=N2)c2cc(-c4cccnc4)ccc2O3)CCO1 [compound 481]", "TGT": "UniProt P56817", "ASSAY VALUE": "> 7.00"}

---

TGT: BACE1 (Homo sapiens)
Sequence (P56817 46-501, species assumed): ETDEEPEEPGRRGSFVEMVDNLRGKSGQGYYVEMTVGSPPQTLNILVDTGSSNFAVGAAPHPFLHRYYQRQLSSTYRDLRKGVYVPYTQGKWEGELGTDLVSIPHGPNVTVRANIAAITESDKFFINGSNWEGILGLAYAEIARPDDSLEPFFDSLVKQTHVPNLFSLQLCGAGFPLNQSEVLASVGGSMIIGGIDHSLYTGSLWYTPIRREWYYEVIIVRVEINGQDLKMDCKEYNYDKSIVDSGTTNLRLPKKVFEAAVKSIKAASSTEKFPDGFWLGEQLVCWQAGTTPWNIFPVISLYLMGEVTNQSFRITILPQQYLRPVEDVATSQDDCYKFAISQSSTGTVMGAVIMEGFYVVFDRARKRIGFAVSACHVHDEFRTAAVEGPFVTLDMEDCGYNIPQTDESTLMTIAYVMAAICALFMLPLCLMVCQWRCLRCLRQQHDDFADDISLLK
EXPERIMENTAL PROTOCOL: In Vitro Enzymatic BACE FRET (Fluorescence Resonance Energy Transfer) Assay
Type: biochemical
RECORDED CONDITIONS: Table III; IC50's in uM ranges; read-out: BACE1 FRET assay

{"COMPOUND": "CC(C)(C#N)COc1ccc2c(c1)[C@]1(COC(N)=N1)c1cc(-c3cccnc3)cnc1O2", "IC50": "< 0.1 µM"}
{"COMPOUND": "CC(C)(C)CCOc1nccc2c1C1(COC(N)=N1)c1cc(-c3cncnc3)ccc1O2 (stereo not shown)", "IC50": "0.1 to 1 µM"}
{"COMPOUND": "COC(C)(C)C#Cc1ccc2c(c1)[C@@]1(COC(N)=N1)c1cc(-c3cccnc3)cnc1O2 [compound 179]", "IC50": "< 0.1 µM"}
{"COMPOUND": "NC1=N[C@@]2(CO1)c1cc(-c3cccnc3)ccc1Oc1cnc(-c3cccnc3)cc12", "IC50": "< 0.1 µM"}
